Tested on: PC-3
TEST_PROTOCOL: Cytotoxicity against human PC3 cells assessed as reduction in cell growth inhibition after 96 hrs by MTT assay
Format: functional
MEASUREMENT_SETUP: PC-3, 96 h
ASSAY_METRIC: GI50 (µM)
Enter your answer as a number in µM; do not include the unit.

Tell me the measured GI50 of `CC(C)c1ccc(C/C(=N\O)C(=O)NCCSSCCNC(=O)/C(Cc2ccc(C(C)C)cc2)=N/O)cc1` , please.
2.67

###

Test system: PC-3
TEST_PROTOCOL: Cytotoxicity against human PC3 cells assessed as reduction in cell growth inhibition after 96 hrs by MTT assay
Type: functional
MEASUREMENT_SETUP: PC-3, 96 h
ASSAY_METRIC: GI50

Solved cases (6 shown):
[[record]]
structure_string = "COc1ccc(-c2cc(C(=O)NCCSSCCNC(=O)c3cc(-c4ccc(OC)cc4)on3)no2)cc1"
reading = "> 50 µM"

[[record]]
structure_string = "COc1ccc(-c2cc(C(=O)NCCSSCCNC(=O)c3cc(-c4ccc(OC)c(Br)c4)on3)no2)cc1Br"
reading = "39 µM"

[[record]]
structure_string = "O=C(NCCSSCCNC(=O)c1cc(-c2ccc(O)cc2)[nH]n1)c1cc(-c2ccc(O)cc2)[nH]n1"
reading = "19.8 µM"

[[record]]
structure_string = "Cc1ccc(C/C(=N\\O)C(=O)NCCSSCCNC(=O)/C(Cc2ccc(C)cc2)=N/O)cc1"
reading = "6.43 µM"

[[record]]
structure_string = "O=C(NCCSSCCNC(=O)/C(Cc1ccc2c(c1)OCO2)=N/O)/C(Cc1ccc2c(c1)OCO2)=N/O"
reading = "2.4 µM"

[[record]]
structure_string = "CO/N=C(\\Cc1ccc(OC)cc1)C(=O)NCCSSCCNC(=O)/C(Cc1ccc(OC)cc1)=N/OC"
reading = "26.8 µM"


Shift focus to the following entry.
Tell me the measured GI50 of `O=C(NCCSSCCNC(=O)c1cc(-c2ccc(O)cc2)on1)c1cc(-c2ccc(O)cc2)on1` , please.
31.7 µM
